# target desc: mouse calmodulin (mouse, UniProt P0DP26 1-149)
# test details: SPR; 1 mM EGTA (no Ca2+)
No end group written: not given here. *: point of attachment. Biotin = O=C1N[C@H]2[C@H](CS[C@H]2CCCCC(=O)*)N1
outcome measure: Kd

Input: Param item = Biotin-GGSGGSPKCYMILFYPERNTSAYFNSMIQGYTMRKS [biotin-mT1r2 CT peptide (cytosolic C-terminal region of mouse taste receptor type 1 subunit 2)] ; retrieve measured Kd.
Output: 9.7 µM
